assay: Cytotoxicity against human HeLa cells assessed as decrease in cell viability after 48 hrs by MTT assay; assay type: cell-based
Here, each record is paired with measured CC50 at 48 h data.
PARAMETER_MEASURED: CC50 at 48 h (µM)

INSERT INTO results (smiles_notation, output_unit, reported_value) VALUES
  ('CC(=O)/C=C/[C@H](CCc1ccccc1)NC(=O)[C@H](CC(C)C)NC(=O)OCc1ccc([N+](=O)[O-])cc1', 'µM', 8.2),
  ('CC(=O)/C=C/[C@H](CCc1ccccc1)NC(=O)[C@H](CC(C)C)NC(=O)OCc1ccccc1', 'µM', 9.58),
  ('CC(C)C[C@H](NC(=O)OCc1ccccc1)C(=O)N[C@H](/C=C/S(=O)(=O)c1ccccc1)CCc1ccccc1', 'µM', 12.2),
  ('CC(=O)/C=C/[C@H](CCc1ccccc1)NC(=O)[C@H](Cc1ccccc1)NC(=O)OCc1ccccc1', 'µM', 7.9);

---

tested on: Trypanosoma brucei brucei; assay: Antiparasitic activity against bloodstream form of Trypanosoma brucei brucei 449 after 24 hrs by ATPlite assay; format: functional; details: Trypanosoma brucei, 449, 24 h
The label criterion met is reserved for EC50 strictly under 6 µM; criterion not met covers values equal to or above it.

INSERT INTO assay_data (molecule, group) VALUES
  ('CC(=O)/C=C/[C@H](CCc1ccccc1)NC(=O)[C@H](Cc1ccccc1)NC(=O)OCc1ccccc1', 'criterion met'),
  ('COC(=O)/C=C/[C@H](CCc1ccccc1)NC(=O)[C@H](Cc1ccccc1)NC(=O)OCc1ccc([N+](=O)[O-])cc1', 'criterion not met'),
  ('CC(=O)/C=C/[C@H](CCc1ccccc1)NC(=O)[C@H](CC(C)C)NC(=O)OCc1ccc([N+](=O)[O-])cc1', 'criterion met'),
  ('O=C(N[C@@H](Cc1ccccc1)C(=O)N[C@H](/C=C/S(=O)(=O)c1ccccc1)CCc1ccccc1)OCc1ccccc1', 'criterion not met'),
  ('O=C(N[C@@H](Cc1ccccc1)C(=O)N[C@H](/C=C/S(=O)(=O)c1ccccc1)CCc1ccccc1)OCc1ccc([N+](=O)[O-])cc1', 'criterion met'),
  ('COC(=O)/C=C/[C@H](CCc1ccccc1)NC(=O)[C@H](Cc1ccccc1)NC(=O)OCc1ccccc1', 'criterion not met'),
  ('N=C(NCCCCCCNC(=N)NC(=N)Nc1ccc(Cl)cc1)NC(=N)Nc1ccc(Cl)cc1 [CHLORHEXIDINE]', 'criterion met'),
  ('CC(C)C[C@H](NC(=O)OCc1ccccc1)C(=O)N[C@H](/C=C/S(=O)(=O)c1ccccc1)CCc1ccccc1', 'criterion met'),
  ('CC(=O)/C=C/[C@H](CCc1ccccc1)NC(=O)[C@H](CC(C)C)NC(=O)OCc1ccccc1', 'criterion met');

---

biological target: UniProt:P07711; assay: Inhibition of human cathepsin L assessed as second order rate constant using Cbz-Phe-Arg-AMC as substrate after 10 mins by fluorescence assay
Sequence (P07711 114-333 limits assumed): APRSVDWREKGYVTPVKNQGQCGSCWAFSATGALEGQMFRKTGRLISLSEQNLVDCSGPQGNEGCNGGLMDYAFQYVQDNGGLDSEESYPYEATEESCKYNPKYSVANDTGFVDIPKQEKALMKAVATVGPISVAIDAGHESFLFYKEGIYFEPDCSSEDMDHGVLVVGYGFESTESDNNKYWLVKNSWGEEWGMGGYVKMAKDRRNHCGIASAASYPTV
PARAMETER_MEASURED: K (×10³ /M/min)

INSERT INTO measurements (smiles_notation, reported_value) VALUES
  ('CC(C)C[C@H](NC(=O)[C@H]1O[C@@H]1C(=O)O)C(=O)NCCCCN=C(N)N', 110),
  ('CC(=O)/C=C/[C@H](CCc1ccccc1)NC(=O)[C@H](Cc1ccccc1)NC(=O)OCc1ccc([N+](=O)[O-])cc1', 737),
  ('COC(=O)/C=C/[C@H](CCc1ccccc1)NC(=O)[C@H](CC(C)C)NC(=O)OCc1ccc([N+](=O)[O-])cc1', 35),
  ('CC(=O)/C=C/[C@H](CCc1ccccc1)NC(=O)[C@H](CC(C)C)NC(=O)OCc1ccc([N+](=O)[O-])cc1', 739),
  ('O=C(N[C@@H](Cc1ccccc1)C(=O)N[C@H](/C=C/S(=O)(=O)c1ccccc1)CCc1ccccc1)OCc1ccccc1', 4.4),
  ('CC(=O)/C=C/[C@H](CCc1ccccc1)NC(=O)[C@H](Cc1ccccc1)NC(=O)OCc1ccccc1', 5750),
  ('COC(=O)/C=C/[C@H](CCc1ccccc1)NC(=O)[C@H](CC(C)C)NC(=O)OCc1ccccc1', 81),
  ('COC(=O)/C=C/[C@H](CCc1ccccc1)NC(=O)[C@H](Cc1ccccc1)NC(=O)OCc1ccccc1', 153),
  ('O=C(N[C@@H](Cc1ccccc1)C(=O)N[C@H](/C=C/S(=O)(=O)c1ccccc1)CCc1ccccc1)OCc1ccc([N+](=O)[O-])cc1', 65),
  ('CC(C)C[C@H](NC(=O)OCc1ccccc1)C(=O)N[C@H](/C=C/S(=O)(=O)c1ccccc1)CCc1ccccc1', 1570),
  ('CC(C)C[C@H](NC(=O)OCc1ccccc1)C(=O)N[C@H](/C=C/C#N)CCc1ccccc1', 3.8),
  ('COC(=O)/C=C/[C@H](CCc1ccccc1)NC(=O)[C@H](Cc1ccccc1)NC(=O)OCc1ccc([N+](=O)[O-])cc1', 64),
  ('CC(=O)/C=C/[C@H](CCc1ccccc1)NC(=O)[C@H](CC(C)C)NC(=O)OCc1ccccc1', 13),
  ('N#C/C=C/[C@H](CCc1ccccc1)NC(=O)[C@H](Cc1ccccc1)NC(=O)OCc1ccccc1', 9.3),
  ('CC(C)C[C@H](NC(=O)OCc1ccc([N+](=O)[O-])cc1)C(=O)N[C@H](/C=C/S(=O)(=O)c1ccccc1)CCc1ccccc1', 22);
